Test: 4 hour solubility in buffered media (HPLC quantitation)
Format: physicochemical
Details: aqueous buffer, thermodynamic from solid, pH 4.5 acetate buffer, 25° C.
QUANTITY: solubility at 4 h
Write the figure, then the unit, nothing else.

Problem: Would you mind telling me what solubility at 4 h value was observed for Nc1ccccc1NC(=O)c1ccc(CNC(=O)OCc2cccnc2)cc1 [U.S. Pat. No. 7,973,166 Polymorph A] ?
Solution: 190 µg/mL

====

Assay: 4 hour solubility in buffered media (HPLC quantitation)
Format: physicochemical
Details: buffer pH 2.8, aqueous buffer, thermodynamic from solid, pH 2.8 buffer, 25° C.
QUANTITY: solubility at 4 h (µg/mL)
Just the number in µg/mL, nothing appended.

Problem: What does the record list as solubility at 4 h for Nc1ccccc1NC(=O)c1ccc(CNC(=O)OCc2cccnc2)cc1 [U.S. Pat. No. 7,973,166 Polymorph A] ?
Solution: 5900

Data provenance is patent US20240239748A1.
